- Target Under Test: T1, extracellular domain of human FGFR1c expressed with C-terminal V5 and hexahistidine tags (human, UniProt P11362 22-376)
- T1 construct: also called hFGFR1c-V5-6His
- T1 sequence: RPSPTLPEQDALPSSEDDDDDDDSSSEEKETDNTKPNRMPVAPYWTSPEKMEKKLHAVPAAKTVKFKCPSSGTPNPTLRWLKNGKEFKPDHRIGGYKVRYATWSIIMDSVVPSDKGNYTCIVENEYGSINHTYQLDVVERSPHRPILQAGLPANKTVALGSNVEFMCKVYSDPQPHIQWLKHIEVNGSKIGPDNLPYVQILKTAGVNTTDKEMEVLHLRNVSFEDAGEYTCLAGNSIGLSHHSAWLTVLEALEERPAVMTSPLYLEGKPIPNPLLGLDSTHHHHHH
- Protocol: SPR, mAb captured, 25 C
Mark Fulfilled for 180 nM hFGFR1c-V5-6His Bind (RU) under 0.4 RU, Not fulfilled if at or over.

>>> category("H4H8881P (antibody, V domains shown, human IgG4 Fc (H4H prefix)) VH: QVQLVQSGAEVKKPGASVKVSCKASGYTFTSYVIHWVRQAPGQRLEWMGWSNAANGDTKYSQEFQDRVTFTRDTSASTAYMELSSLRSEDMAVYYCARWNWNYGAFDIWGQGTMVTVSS VL: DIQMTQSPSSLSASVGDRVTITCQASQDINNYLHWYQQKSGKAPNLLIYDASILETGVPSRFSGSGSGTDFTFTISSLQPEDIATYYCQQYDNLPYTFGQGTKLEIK")
"Fulfilled"
>>> category("H2bM8096N (antibody, V domains shown, mouse IgG2 Fc (H2bM prefix)) VH: QVQLVESGGGVVQPGRSLRLSCAASGFTFSSYGLHWVRQAPGKGLEWVAVIWHDGSHKYYADSVKGRFTISRDNSKNTVYLQMNSLRAEDTAVYYCARDGIPVAEDYYLYGMDVWGQGTTVTVSS VL: EIVLTQSPGTLSLSPGERATLSCRASQSVDSSYLAWYHQKPGQAPRLLIYGASSRATGIPDRFSGSGSGTDFTLTISRLEPEDFAVYYCQQYGSSRTFGQGTKVEIK")
"Fulfilled"
>>> category("H1H8898P (antibody, V domains shown, H1H Fc prefix (human Fc)) VH: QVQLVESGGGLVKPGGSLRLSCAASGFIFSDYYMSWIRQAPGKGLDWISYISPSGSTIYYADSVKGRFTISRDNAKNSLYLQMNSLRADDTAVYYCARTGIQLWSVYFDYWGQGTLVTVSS VL: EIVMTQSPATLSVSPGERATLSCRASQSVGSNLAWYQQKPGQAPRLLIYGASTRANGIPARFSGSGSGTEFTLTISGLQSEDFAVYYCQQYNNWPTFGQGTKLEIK")
"Not fulfilled"
>>> category("H1H8900P (antibody, V domains shown, H1H Fc prefix (human Fc)) VH: QVQLVESGGGVVQPGRSLRLSCVASGFTFSSYGMHWVRQAPGKGLEWVAVISFDGSNKYYADSVKGRFTISRDNSKNTLYLQMNSLRPADTAVYYCAKDRSNYYYFGMDVWGQGTTVTVSS VL: DIVMTQTPLSLPVTPGEPASISCRSSQSLLDSDDGNTYLDWYLQKPGQSPQLLIYTLSYRASGVPDRFSGSGSGTDFTLKISRVEAEDVGVYYCMQRIEFPLTFGGGTKVEIK")
"Not fulfilled"
